- Measured Target: Human immunodeficiency virus type 1 integrase (Human immunodeficiency virus 1)
- Sequence (Q7ZJM1 whole entry): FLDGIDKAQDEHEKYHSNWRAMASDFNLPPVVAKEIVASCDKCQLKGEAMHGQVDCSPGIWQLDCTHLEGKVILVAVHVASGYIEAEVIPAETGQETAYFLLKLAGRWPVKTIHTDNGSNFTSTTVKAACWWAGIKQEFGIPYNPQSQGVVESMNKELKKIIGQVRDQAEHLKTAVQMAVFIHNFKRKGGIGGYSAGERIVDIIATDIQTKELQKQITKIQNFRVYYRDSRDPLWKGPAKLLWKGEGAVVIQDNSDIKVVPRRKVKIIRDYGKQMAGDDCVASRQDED
- Method: Inhibition of HIV1 integrase strand transfer activity using [32P]-labeled linear oligonucleotide substrate
Assay Metric: IC50

1) O=C(NCc1ccc(F)cc1)c1nc(N2CCCCS2(=O)=O)c2cccnc2c1O; 0.3 µM
2) O=C(NCc1ccc(F)cc1)c1nc(Br)c2cccnc2c1O; 0.5 µM
3) O=C(NCc1ccc(F)cc1)c1nc(Br)c2cccnc2c1NCCCNc1c(C(=O)NCc2ccc(F)cc2)nc(Br)c2cccnc12; > 100 µM
4) NCCNc1c(C(=O)NCc2ccc(F)cc2)nc(Br)c2cccnc12; > 100 µM
5) CNc1c(C(=O)NCc2ccc(F)cc2)nc(Br)c2cccnc12; > 100 µM

Entry O=C(NCc1ccc(F)cc1)c1nc(NCCc2c[nH]c3ccccc23)c2cccnc2c1O : reported IC50 = ? 1 µM

Input CS(=O)(=O)Oc1c(C(=O)NCc2ccc(F)cc2)nc(Br)c2cccnc12 13 µM

Same question, C[C@H](Nc1c(C(=O)NCc2ccc(F)cc2)nc(Br)c2cccnc12)c1ccccc1 this time > 111 µM

Consider next the molecule CS(=O)(=O)NCCCN(c1nc(C(=O)NCc2ccc(F)cc2)c(O)c2ncccc12)S(C)(=O)=O in the same way. 0.7 µM

Try the molecule Cc1ccc(S(=O)(=O)Oc2c(C(=O)NCc3ccc(F)cc3)nc(Br)c3cccnc23)cc1 31 µM

Thanks! And C[C@@H](Nc1c(C(=O)NCc2ccc(F)cc2)nc(Br)c2cccnc12)c1ccccc1 ? > 111 µM

====

Reported CC50 at 72 h values for a set of compounds
- Method: Toxicity against human C8166 cells incubated for 72 hrs by MTT assay
- Format: cell-based
Your answer is read as µM, so omit the unit and give the number.

If you can, please state the reported CC50 at 72 h value of O=C(NCc1ccc(F)cc1)c1nc(Br)c2cccnc2c1NCCO . 232

Okay, and O=C(NCc1ccc(F)cc1)c1nc(N2CCCCS2(=O)=O)c2cccnc2c1O ? 132

====

compounds and their reported pIC50
- Tested on: MDA-MB-435
- Method: Cytotoxicity against human MDA-MB-435 cells incubated for 72 hrs by MTT assay
- Type: functional, cell-based
- Cond: MDA-MB-435, 72 h
// pIC50 here means minus log10 of the molar concentration (mol/L)

As a guide, the following entries are already answered.
1) O=CNCCCCCCNc1nc(C(=O)NCc2ccc(F)cc2)c(O)c2ncccc12; 4.80
2) COC(=O)CNc1c(C(=O)NCc2ccc(F)cc2)nc(Br)c2cccnc12; 5.00
3) N[C@H]1CC[C@H](Nc2c(C(=O)NCc3ccc(Cl)cc3Cl)nc(Br)c3cccnc23)CC1; 5.24

Below: the item to evaluate.
Value wanted: pIC50 (MDA-MB-435) of entry Nc1ccc(Nc2c(C(=O)NCc3ccc(F)cc3)nc(Br)c3cccnc23)cc1 5.15

====

Some molecules, each annotated with its measured inhibition.
- Measured Target: Receptor tyrosine-protein kinase erbB-2 (Homo sapiens) (UniProt P04626)
- Sequence (P04626 whole entry): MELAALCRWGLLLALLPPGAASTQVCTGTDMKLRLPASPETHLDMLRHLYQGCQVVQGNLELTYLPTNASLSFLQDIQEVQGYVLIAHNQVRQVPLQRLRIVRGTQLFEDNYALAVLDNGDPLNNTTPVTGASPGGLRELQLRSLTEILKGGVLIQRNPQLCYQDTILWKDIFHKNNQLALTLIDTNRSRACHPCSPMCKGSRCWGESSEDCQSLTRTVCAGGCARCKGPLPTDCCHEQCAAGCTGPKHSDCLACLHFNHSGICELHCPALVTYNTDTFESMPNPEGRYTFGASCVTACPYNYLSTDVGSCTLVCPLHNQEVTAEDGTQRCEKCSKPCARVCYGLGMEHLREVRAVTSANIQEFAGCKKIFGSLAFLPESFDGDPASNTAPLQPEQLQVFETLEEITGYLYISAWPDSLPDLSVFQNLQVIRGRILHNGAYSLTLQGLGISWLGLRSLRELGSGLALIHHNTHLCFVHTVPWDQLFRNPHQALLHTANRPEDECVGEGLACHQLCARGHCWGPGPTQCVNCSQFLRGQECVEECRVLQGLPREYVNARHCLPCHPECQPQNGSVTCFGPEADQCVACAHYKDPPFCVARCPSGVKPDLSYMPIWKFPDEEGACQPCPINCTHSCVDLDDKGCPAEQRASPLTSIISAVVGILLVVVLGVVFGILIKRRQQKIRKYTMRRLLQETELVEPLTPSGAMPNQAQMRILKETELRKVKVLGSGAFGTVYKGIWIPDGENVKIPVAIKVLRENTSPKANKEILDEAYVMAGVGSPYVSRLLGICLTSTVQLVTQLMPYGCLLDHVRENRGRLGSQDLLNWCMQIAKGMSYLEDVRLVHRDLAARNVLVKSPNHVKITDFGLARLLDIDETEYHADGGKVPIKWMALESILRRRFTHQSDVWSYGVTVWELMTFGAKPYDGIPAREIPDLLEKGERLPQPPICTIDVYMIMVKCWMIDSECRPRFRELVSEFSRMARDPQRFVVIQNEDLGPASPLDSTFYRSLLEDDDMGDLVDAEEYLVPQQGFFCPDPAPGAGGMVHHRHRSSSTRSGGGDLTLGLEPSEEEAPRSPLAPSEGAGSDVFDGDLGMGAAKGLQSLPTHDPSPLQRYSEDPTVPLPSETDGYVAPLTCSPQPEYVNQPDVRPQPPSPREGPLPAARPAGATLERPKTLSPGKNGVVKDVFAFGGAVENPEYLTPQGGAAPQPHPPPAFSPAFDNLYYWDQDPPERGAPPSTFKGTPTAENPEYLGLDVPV
- Method: Inhibition of ErbB2 at 10 uM incubated for 60 mins using poly(Glu,Tyr)4:1 substrate and 10 uM ATP by ELISA
Write the value in % as a bare number.

Below, 8 molecules whose answers are already recorded.
1. N[C@H]1CC[C@H](Nc2c(C(=O)NCc3ccc(Cl)cc3Cl)nc(Br)c3cccnc23)CC1; 13
2. N[C@H]1CC[C@H](Nc2c(C(=O)NCc3ccc4c(c3)OCO4)nc(Br)c3cccnc23)CC1; 0
3. N[C@H]1CC[C@H](Nc2c(C(=O)NCc3ccc(F)cc3)nc(Br)c3cccnc23)CC1; 7
4. N[C@H]1CC[C@H](NC(=O)c2nc(Br)c3cccnc3c2NCc2ccc(F)cc2)CC1; 3
5. COc1ccc(CNC(=O)c2nc(Br)c3cccnc3c2N[C@H]2CC[C@H](N)CC2)cc1; 0
6. CS(=O)(=O)CCNCc1ccc(-c2ccc3ncnc(Nc4ccc(OCc5cccc(F)c5)c(Cl)c4)c3c2)o1; 92
7. N[C@H]1CC[C@H](Nc2c(C(=O)NCCc3ccccc3)nc(Br)c3cccnc23)CC1; 0
8. COc1cccc(CNC(=O)c2nc(Br)c3cccnc3c2N[C@H]2CC[C@H](N)CC2)c1; 0

Bench note: what inhibition did N[C@H]1CC[C@H](Nc2c(C(=O)Nc3ccccc3)nc(Br)c3cccnc23)CC1 show? 0

Next up: O=C(NCc1ccc(F)cc1)c1nc(N2CCCCS2(=O)=O)c2cccnc2c1O 8

Can you handle N[C@H]1CC[C@H](Nc2c(C(=O)NCc3ccccc3)nc(Br)c3cccnc23)CC1 next? 0

Same for O=CNCCCCCCNc1nc(C(=O)NCc2ccc(F)cc2)c(O)c2ncccc12 11

What do we get for N[C@H]1CC[C@H](Nc2c(C(=O)NCc3ccc(Cl)cc3)nc(Br)c3cccnc23)CC1 ? 0

Please give the result for Nc1ccc(Nc2c(C(=O)NCc3ccc(F)cc3)nc(Br)c3cccnc23)cc1 too. 1

Entry O=C(NCc1ccc(F)cc1)c1nc(Br)c2cccnc2c1NC1CCNCC1 please 1

====

- Method: Therapeutic index, ratio of CC50 for human C8166 cells to EC50 for HIV1 3B
- Format: cell-based
- Cond: read-out: Ratio CC50/EC50
So basically every entry gets a class from its selectivity ratio, ranges being small value = under 7, mid value = from 7 up to 7000, large value = 7000 and over

1. C[C@H](CO)Nc1nc(C(=O)NCc2ccc(F)cc2)c(O)c2ncccc12; mid value

Next, consider the following compound.
Exam item: assign CS(=O)(=O)Oc1c(C(=O)NCc2ccc(F)cc2)nc(Br)c2cccnc12 to the correct category. small value

====

- System: SK-BR-3
- Method: Cytotoxicity against human SKBR3 cells incubated for 72 hrs by MTT assay
- Type: functional, cell-based
- Cond: SK-BR-3, 72 h
Assay Metric: IC50 (µM)
State the answer as a number, implicitly in µM.

For Nc1ccc(Nc2c(C(=O)NCc3ccc(F)cc3)nc(Br)c3cccnc23)cc1 , what is its reported IC50? 4

Okay, and N[C@H]1CC[C@H](NC(=O)c2nc(Br)c3cccnc3c2NCc2ccc(F)cc2)CC1 ? 2.8

Similarly, N[C@H]1CC[C@H](Nc2c(C(=O)NC3CCCCC3)nc(Br)c3cccnc23)CC1 ? 4.2

====

- Measured Target: UniProt Q7ZJM1
- Method: Inhibition of HIV1 integrase 3'-processing activity using [32P]-labeled linear oligonucleotide substrate
Assay Metric: IC50

1) NCCNc1c(C(=O)NCc2ccc(F)cc2)nc(Br)c2cccnc12; > 100 µM
2) O=C(NCc1ccc(F)cc1)c1nc(Br)c2cccnc2c1NCc1ccc(F)cc1; > 100 µM

Could you now look at the following compound, please?
Form field: reported IC50 of NCCCNc1c(C(=O)NCc2ccc(F)cc2)nc(Br)c2cccnc12 > 100 µM

====

- System: MDA-MB-435
- Method: Cytotoxicity against human MDA-MB-435 cells incubated for 72 hrs by MTT assay
- Assay type: functional, cell-based
- Cond: MDA-MB-435, 72 h
IC50: recorded values
The reply should be a number in µM, with the unit left off.

As a guide, the following entries are already answered.
1) Nc1cccc(Nc2c(C(=O)NCc3ccc(F)cc3)nc(Br)c3cccnc23)c1; 8
2) O=C(NCc1ccc(F)cc1)c1nc(Br)c2cccnc2c1O; 15
3) N[C@H]1CC[C@H](Nc2c(C(=O)NCc3ccc(F)cc3)nc(Br)c3cccnc23)CC1; 6

Please report the recorded IC50 for NCCCNc1c(C(=O)NCc2ccc(F)cc2)ncc2cccnc12 . 16

Same question, CC(C)(C)OC(=O)N1CCC(Nc2c(C(=O)NCc3ccc(F)cc3)nc(Br)c3cccnc23)CC1 this time 20

Cool, now CN(C)CCCNc1c(C(=O)NCc2ccc(F)cc2)nc(Br)c2cccnc12 7

Now try N[C@H]1CC[C@H](Nc2c(C(=O)NCc3ccccc3)nc(Br)c3cccnc23)CC1 . 7

Try this compound too: O=C(NCc1ccc(F)cc1)c1nc(Br)c2cccnc2c1NC1CCNCC1 7

Next up: N[C@H]1CC[C@H](Nc2c(C(=O)NCc3ccc4c(c3)OCO4)nc(Br)c3cccnc23)CC1 7

Note, next up: COc1ccc(CNC(=O)c2nc(Br)c3cccnc3c2N[C@H]2CC[C@H](N)CC2)cc1 5

Same question for NCCCCCCNc1c(C(=O)NCc2ccc(F)cc2)nc(Br)c2cccnc12 please. 6

====

- Tested on: SK-BR-3
- Method: Cytotoxicity against human SKBR3 cells incubated for 72 hrs by MTT assay
- Format: functional, cell-based
- Cond: SK-BR-3, 72 h
Assay Metric: IC50 (µM)
Reply with just the number (in µM).

What does the record list as IC50 for N[C@H]1CC[C@H](Nc2c(C(=O)NCc3ccc4c(c3)OCO4)nc(Br)c3cccnc23)CC1 ? 6

Lookup CC(C)(C)OC(=O)N1CCN(c2c(C(=O)NCc3ccc(F)cc3)nc(Br)c3cccnc23)CC1 3

What do we get for COc1ccc(CNC(=O)c2nc(Br)c3cccnc3c2N[C@H]2CC[C@H](N)CC2)cc1 ? 5

Proceed to CC(C)(C)OC(=O)N1CCC(Nc2c(C(=O)NCc3ccc(F)cc3)nc(Br)c3cccnc23)CC1 1
